Test system: PC12 cells
method.summary: Neuroprotective activity against Aβ25-35 induced PC12 cell death by MTT assay
Assay type: cell-based
condition.details: Aβ25-35-induced cell damage in PC12 cells, MTT; control = 1.000, model (Aβ25-35) = 0.633; test concentration not given
Rule for this label: YES means Cell viability is less than 0.7; NO means Cell viability is at least 0.7.

* O=C1CCC[C@@H]2[C@@H]3C[C@H](CN12)[C@@H]1CCCCN1C3 [Compound 9, (+)-lupanine] | NO
* Oc1ccc(/C=C/c2cc(O)cc(O)c2)cc1 [Resveratrol, reference compound] | NO
* C[C@@H]1N2CCCC[C@H]2[C@@]23C[C@H](C=C4CCCN1[C@@H]42)[C@@H]1CCCCN1C3 [Compound 4, (−)-ormohenin D] | YES
* O=c1cccc2n1C[C@@H]1CNC[C@H]2C1 [Compound 12, (+)-cytisine] | NO
* CC1N2CCCCC2C23CC(CC4CCCN1C42)C1CCCCN1C3 (single isomer, unassigned; (-)) [Compound 3, (−)-ormohenin C] | NO
* O=C1CCC[C@@H]2[C@@H]3C[C@H](CN12)[C@H]1CCCCN1C3 [Compound 11, (+)-α-isolupanine] | YES
* CC1N2CCCCC2C23CC(CC4CCCN1C42)C1CCCCN1C3 (racemic) [Compound 1, (±)-Ormohenin A] | YES
* O=c1cccc2n1C[C@H]1C[C@@H]2CN2CC=CC[C@@H]12 [Compound 8, (7S,9S,11S)-15,16-dehydroanagyrine] | YES
* O=C1CC=C[C@@H]2[C@@H]3C[C@H](CN12)[C@H]1CCCCN1C3 [Compound 7, (6R,7S,9S,11R)-4,5-dehydro-α-isolupanine] | YES
* O=c1cccc2n1C[C@H]1C[C@@H]2CN2CCCC[C@@H]12 [Compound 10, (+)-anagyrine] | YES
